- Test system: SARS-CoV-2
- assayOverview: Anti-viral potency in VERO E6 cells (cytopathic viral activity, crystal violet)
- Type: cell-based
- conditionDescription: Severe acute respiratory syndrome coronavirus 2, Vero C1008, 48 h, read-out: SARS-COV-2 EC50 (μM)
measuredEndpoint: EC50

Illustrative cases are given below, each with its answer.
COc1ccc(-c2cnn(C)c2)cc1[C@@H](C)NC(=O)c1cc(N2CCN(C)CC2)ccc1C [Example 239] : < 5 µM
COc1cc(-c2cnn(C3CC3)c2)cc([C@@H](C)NC(=O)c2cc(N3CCN(C)CC3)ccc2C)c1 [Example 221] : < 5 µM

stdin: Reported EC50 for COc1cc(OC)c([C@@H](C)NC(=O)c2cc(N3CCN(C)CC3)ccc2C)cc1-c1cnn(C)c1 [Example 215] : what is it?
stdout: < 5 µM

---

- studySystem: SARS-CoV-2 PLpro (Severe acute respiratory syndrome coronavirus 2, UniProt P0DTD1)
- Construct: containing 60 nM papain-like protease
- assayOverview: biochemical
- conditionDescription: 60 nM papain-like protease, 50 μM Z-RLRGG-AMC, pH 7.5, 37° C.; read-out: SARS-CoV-2 PLpro IC50
pIC50: −log10 of the molar value. Counter-ions that a name gives are not always drawn.
Let's look at some compounds and their measured pIC50.

stdin: Reported pIC50 for Cc1cnc(N2CCN(C)CC2)nc1C(=O)N[C@H](C)c1cccc2ccccc12 [Example 8, Hydrochloride Salt] : what is it?
stdout: > 4.00

stdin: Reported pIC50 for "Cc1ccc(N2CCN(C)CC2)cc1C(=O)N[C@H](C)c1ccc(OC(C)C)c(-c2cnn(C)c2)c1" : what is it?
stdout: > 5.70

stdin: Reported pIC50 for "COc1c(-c2cnn(C)c2)cccc1[C@@H](C)NC(=O)c1cc(N2CCN(C)CC2)ccc1C" : what is it?
stdout: > 5.00

---

- Tested on: human Hep G2 cells (ATCC HB-8065)
- assayOverview: Cytotoxicity in Hep G2 cells (CellTiter-Glo)
- Format: cell-based
- conditionDescription: Hep G2 cells, 100 μM test article, 24-hour exposure
Let's look at some compounds and their measured % Cell Viability.
Give the number; % is assumed, so skip it.

Cc1ccc(N2CCN(C)CC2)cc1C(=O)N[C@H](C)c1cccc(-c2ccc(C(=O)O)cc2)c1 [Example 41] : 110.1

stdin: Reported % Cell Viability for COc1cc(-c2cc(C(=O)N(C)C)n(C)c2)cc([C@@H](C)NC(=O)c2cc(N3C[C@H]4C[C@@H]3CN4C)ccc2C)c1 [Example 290] : what is it?
stdout: 72.9

---

- System: human Hep G2 cells (ATCC HB-8065)
- assayOverview: Cytotoxicity in Hep G2 cells (CellTiter-Glo)
- Format: cell-based
- conditionDescription: human, 24 h, 100 μM
Where a name gives a salt, the structure may show the parent alone.
Let's look at some compounds and their measured % Cell Viability.
Give the number; % is assumed, so skip it.

C[C@@H](NC(=O)c1cc(C2=CCN(C)CC2)ccc1Cl)c1cccc2ccccc12 [Example 144] : 1.6
COc1cc(-c2cn(C)nc2C)cc([C@@H](C)NC(=O)c2cc(N3C[C@H]4CC[C@@H](C3)N4)ccc2C)c1 [Example 270] : 22.6
COc1cc(-c2cnn(C)c2)cc([C@@H](C)NC(=O)c2cc(N3C[C@H]4CC[C@@H](C3)N4CC3CC3)ccc2C)c1 [Example 274] : 38.7
Cc1ccc(C2=CCNCC2)c(C)c1C(=O)N[C@H](C)c1cccc2ccccc12 [Example 155] : 0.6
COc1ccc([C@@H](C)NC(=O)c2cc(N3C[C@H]4CC[C@@H](C3)N4)ccc2C)cc1-c1cnn(C)c1 [Example 266, hydrochloride salt] : 61.1

Turning to the following compound.
stdin: Enter reported % Cell Viability observed with human Hep G2 cells (ATCC HB-8065) for COc1ccc([C@@H](C)NC(=O)c2cc(N3C[C@H]4CC[C@@H](C3)N4C)ccc2C)cc1OC [Example 11]
stdout: 95.6

---

- studySystem: SARS-CoV-2 PLpro (Severe acute respiratory syndrome coronavirus 2)
- Construct: containing 60 nM papain-like protease
- assayOverview: biochemical
- conditionDescription: 60 nM papain-like protease, 50 μM Z-RLRGG-AMC, pH 7.5, 37° C.; read-out: SARS-CoV-2 PLpro IC50
measuredEndpoint: IC50

Cc1ccc(N2CCN(C)CC2)cc1C(=O)N[C@H](C)c1ccc(OCCO)c(-c2cnn(C)c2)c1 [Example 282] : < 2000 nM

stdin: Enter reported IC50 observed with SARS-CoV-2 PLpro (Severe acute respiratory syndrome coronavirus 2) for CCn1cc(-c2cc(OC)cc([C@@H](C)NC(=O)c3cc(N4CCN(C)CC4)ccc3C)c2)cn1 [Example 220]
stdout: < 2000 nM

stdin: Enter reported IC50 observed with SARS-CoV-2 PLpro (Severe acute respiratory syndrome coronavirus 2) for Cc1ccc(N2CCN(C)CC2)cc1C(=O)N[C@H](C)c1cccc(-c2cccc(C(=O)N(C)C)c2)c1 [Example 47]
stdout: < 2000 nM

stdin: Enter reported IC50 observed with SARS-CoV-2 PLpro (Severe acute respiratory syndrome coronavirus 2) for COc1ccc([C@@H](C)NC(=O)c2cc(N3CCN(C)CC3)ccc2C)cc1-c1cnn(C)c1C [Example 246]
stdout: < 2000 nM

stdin: Enter reported IC50 observed with SARS-CoV-2 PLpro (Severe acute respiratory syndrome coronavirus 2) for COc1cc(-c2cnn(C)c2)cc([C@@H](C)NC(=O)c2cc(N3C[C@H]4C[C@@H]3CN4C)ccc2C)c1 [Example 244]
stdout: < 2000 nM

stdin: Enter reported IC50 observed with SARS-CoV-2 PLpro (Severe acute respiratory syndrome coronavirus 2) for COc1c(Br)cccc1[C@@H](C)NC(=O)c1cc(N2CCN(C)CC2)ccc1C [Example 194]
stdout: < 100000 nM

---

Let's look at some compounds and their measured % Cell Viability.
- Test system: human Hep G2 cells (ATCC HB-8065)
- assayOverview: Cytotoxicity in Hep G2 cells (CellTiter-Glo)
- Assay type: cell-based
- conditionDescription: Hep G2 cells, 100 μM test article, 24-hour exposure
Give the number; % is assumed, so skip it.

COc1cc(-c2cn(C)nc2C)cc([C@@H](C)NC(=O)c2cc(N3CC4CN(C)CC4C3)ccc2C)c1 (stereo partly shown) : 57.0
CNC(=O)CCc1cccc([C@@H](C)NC(=O)c2cc(N3CCN(C)CC3)ccc2C)c1 : 85.1
Cc1ccc(N2CCN(C)CC2)cc1C(=O)N[C@H](C)c1cncc(-c2cnn(C)c2)c1 : 105.0

stdin: Enter reported % Cell Viability observed with human Hep G2 cells (ATCC HB-8065) for "Cc1ccc(N2CCCNCC2)cc1C(=O)N[C@H](C)c1cccc2ccccc12"
stdout: 1.1

---

Let's look at some molecules and their measured IC50.
- studySystem: SARS-CoV-2 PLpro (Severe acute respiratory syndrome coronavirus 2)
- Construct: containing 60 nM papain-like protease
- assayOverview: biochemical
- conditionDescription: 60 nM papain-like protease, 50 μM Z-RLRGG-AMC, pH 7.5, 37° C.; read-out: SARS-CoV-2 PLpro IC50

Illustrative cases are given below, each with its answer.
COc1ccc([C@@H](C)NC(=O)c2cc(N3CCN(C)CC3)ccc2C)cc1OCCO : < 5 µM
Cc1ccc(-c2cn[nH]c2)cc1C(=O)N[C@H](C)c1cccc2ccccc12 : < 20 µM

stdin: Reported IC50 for "COc1ccc([C@@H](C)NC(=O)c2cc(N3CCN(C)CC3)ccc2C)cc1C1CCNCC1" : what is it?
stdout: < 5 µM

stdin: Reported IC50 for "Cc1ccc(N2CCCN(S(N)(=O)=O)CC2)cc1C(=O)N[C@H](C)c1cccc2ccccc12" : what is it?
stdout: < 20 µM

---

Let's look at some molecules and their measured EC50.
- System: SARS-CoV-2
- assayOverview: Anti-viral potency in VERO E6 cells (cytopathic viral activity, crystal violet)
- Format: cell-based
- conditionDescription: Severe acute respiratory syndrome coronavirus 2, Vero C1008, 48 h, read-out: SARS-COV-2 EC50 (μM)
Structures can show the parent of a compound that is named as a salt.

Illustrative cases are given below, each with its answer.
COc1ccc([C@@H](C)NC(=O)c2cc(N3C[C@H]4C[C@@H]3CN4C)ccc2C)cc1-c1cnn(C)c1 : < 5 µM
COc1ccc([C@@H](C)NC(=O)c2cc(N3C[C@H]4CC[C@@H](C3)N4C)ccc2C)cc1OC : < 5 µM
COc1cc(-c2cnn(C)c2)cc([C@@H](C)NC(=O)c2cc(N3CCN(CC4CC4)CC3)ccc2C)c1 : < 5 µM
COc1ccc([C@@H](C)NC(=O)c2cc(N3CC4CN(C)CC4C3)ccc2C)cc1OC (stereo partly drawn) : < 15 µM
COc1ccc([C@@H](C)NC(=O)c2cc(N3CCN(C)CC3)ccc2C)cc1-c1cnn(C)c1 : < 5 µM

stdin: Reported EC50 for "COc1cc(-c2cn(C)nc2C)cc([C@@H](C)NC(=O)c2cc(N3C[C@H]4C[C@@H]3CN4C)ccc2C)c1" : what is it?
stdout: < 5 µM

stdin: Reported EC50 for "COc1ccc([C@@H](C)NC(=O)c2cc(N3CCN(C)CC3)ccc2C)cc1OCC1CC1" : what is it?
stdout: < 15 µM

stdin: Reported EC50 for "COCCOc1ccc([C@@H](C)NC(=O)c2cc(N3CCN(C)CC3)ccc2C)cc1-c1cnn(C)c1" : what is it?
stdout: < 5 µM

stdin: Reported EC50 for "CCn1cc(-c2cccc([C@@H](C)NC(=O)c3cc(N4CCN(C)CC4)ccc3C)c2)cn1" : what is it?
stdout: < 5 µM

stdin: Reported EC50 for COc1cc(-c2cnn(C)c2C)cc([C@@H](C)NC(=O)c2cc(N3CCN(C)CC3)ccc2C)c1 [Example 253, hydrochloride salt] : what is it?
stdout: < 5 µM

stdin: Reported EC50 for COc1ccc([C@@H](C)NC(=O)c2cc(N3CC4CNCC4C3)ccc2C)cc1-c1cnn(C)c1 (stereo partly drawn) : what is it?
stdout: < 15 µM

stdin: Reported EC50 for "COc1cc(-c2cnn(C)c2)cc([C@@H](C)NC(=O)c2cc(N3C[C@H]4CC[C@@H](C3)N4)ccc2C)c1" : what is it?
stdout: < 5 µM

stdin: Reported EC50 for "COc1cc([C@@H](C)NC(=O)c2cc(N3CCN(C)CC3)ccc2C)ccc1-c1cnn(C)c1" : what is it?
stdout: < 5 µM

stdin: Reported EC50 for "COc1cc(-c2cn(C)nc2C)cc([C@@H](C)NC(=O)c2cc(N3CCN(C)CC3)ccc2C)c1" : what is it?
stdout: < 5 µM

stdin: Reported EC50 for "COc1cc(-c2cnn(C)c2)cc([C@@H](C)NC(=O)c2cc(N3CCNCC3)ccc2C)c1" : what is it?
stdout: < 5 µM
